# Tested on: MDA-MB-468 TNBC cells
# assay protocol: LDH release cytotoxicity assay in MDA-MB-468 cells
# Assay type: cell-based, human
# setup conditions: Homo sapiens, MDA-MB-468; LDH release, 48 hrs; read-out: CT50 (half-response of cytotoxicity)
experimental endpoint: EC50 (nM)

O=C(O)CCC(=O)NCc1csc2ccc(Cl)cc12 [SIM-1] :: 20.8
CCOC(=O)c1c(NC(C)=O)sc2c(Cl)c(/C=N/O)ccc12 [SIM-2] :: 18.3

Origin of measurements: patent US20250255847A1
